- System tested: mTOR (Homo sapiens, UniProt P42345)
- Construct: FLAG; made in house
- Sequence (P42345 1362-2549): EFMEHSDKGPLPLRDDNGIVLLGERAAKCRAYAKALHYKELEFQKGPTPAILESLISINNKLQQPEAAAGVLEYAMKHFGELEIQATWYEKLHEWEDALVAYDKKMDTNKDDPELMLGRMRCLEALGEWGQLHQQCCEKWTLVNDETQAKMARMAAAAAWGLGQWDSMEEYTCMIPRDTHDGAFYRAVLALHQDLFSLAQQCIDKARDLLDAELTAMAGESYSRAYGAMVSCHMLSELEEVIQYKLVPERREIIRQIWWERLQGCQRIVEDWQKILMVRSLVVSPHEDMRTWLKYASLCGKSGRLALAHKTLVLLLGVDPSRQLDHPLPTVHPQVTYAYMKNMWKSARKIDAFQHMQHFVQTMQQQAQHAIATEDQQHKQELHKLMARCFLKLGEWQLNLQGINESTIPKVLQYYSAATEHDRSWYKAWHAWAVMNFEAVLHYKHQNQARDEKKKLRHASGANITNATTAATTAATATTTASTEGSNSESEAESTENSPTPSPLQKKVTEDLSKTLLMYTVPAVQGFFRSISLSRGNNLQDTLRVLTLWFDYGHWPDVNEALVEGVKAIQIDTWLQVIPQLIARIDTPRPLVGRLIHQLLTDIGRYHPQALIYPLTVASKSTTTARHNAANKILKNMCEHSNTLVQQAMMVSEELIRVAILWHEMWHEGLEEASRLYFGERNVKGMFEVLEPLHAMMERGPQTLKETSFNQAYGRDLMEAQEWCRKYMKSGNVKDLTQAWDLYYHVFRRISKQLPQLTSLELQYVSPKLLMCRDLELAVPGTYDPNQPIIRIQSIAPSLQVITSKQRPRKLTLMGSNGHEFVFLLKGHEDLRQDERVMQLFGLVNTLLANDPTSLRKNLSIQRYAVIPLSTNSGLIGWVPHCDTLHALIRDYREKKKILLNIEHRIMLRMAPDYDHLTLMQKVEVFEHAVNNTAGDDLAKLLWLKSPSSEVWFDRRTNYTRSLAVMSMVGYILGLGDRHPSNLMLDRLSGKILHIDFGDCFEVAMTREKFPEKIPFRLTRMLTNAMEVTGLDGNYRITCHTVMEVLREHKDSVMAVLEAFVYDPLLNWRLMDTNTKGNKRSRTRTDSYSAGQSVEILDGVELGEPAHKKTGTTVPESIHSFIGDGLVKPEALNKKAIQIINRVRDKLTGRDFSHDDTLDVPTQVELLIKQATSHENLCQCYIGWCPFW
- Protocol text: In Vitro mTOR Kinase Assay (Echo), Test (a)(ii)
- Type: biochemical
- Experimental conditions: table of enzyme assay Test (a)(ii); read-out: Test (a)(ii) IC50
Readout name: IC50 (nM)
// return numeric value only (unit: nM, not printed)

Determine its reported IC50: C[C@H]1COCCN1c1cc(C2(S(=O)(=O)c3cc(F)cc(F)c3)CC2)nc(-c2ccc(NC(=O)NCCN(C)C)cc2)n1 [Example 19f]
80.4

Specify IC50 for C[C@H]1COCCN1c1cc(C2(S(=O)(=O)c3ccccc3Cl)CC2)nc(-c2ccc(NC(=O)NCCF)cc2)n1 [Example 76e] and stop.
5.66

Using the record for C[C@H]1COCCN1c1cc(C2(S(=O)(=O)c3ccccn3)CCCC2)nc(-c2ccc(NC(=O)NC3CC3)cc2)n1 [Example 36ab] , state its measured IC50.
11

Given CNC(=O)Nc1ccc(-c2nc(N3CCOC[C@@H]3C)cc(C3(S(=O)(=O)C4CCOCC4)CC3)n2)cc1 [Example 94a] , respond with its IC50.
13.6

----------
- System tested: mTOR (Homo sapiens)
- Construct: FLAG; made in house
- Protocol text: In Vitro mTOR Kinase Assay (Echo), Test (a)(ii)
- Type: biochemical
- Experimental conditions: read-out: mTOR Kinase Assay (Echo)
Readout name: pIC50
Quick note: pIC50 means taking -log10 of the concentration in moles per liter.

Identify the reported pIC50 for the following entry. `C[C@H]1COCCN1c1cc(C2(S(=O)(=O)C3CC3)CC2)nc(-c2ccc(NC(=O)Nc3cnn(C)c3)cc2)n1`
9.30

Find the measured pIC50 of CCS(=O)(=O)C1(c2cc(N3CCOC[C@@H]3C)nc(-c3ccc(NC(=O)Nc4ccccn4)cc3)n2)CC1 [Example 11l] and report it.
8.45

Annotate the molecule CC(C)NC(=O)Nc1ccc(-c2nc(N3CCOC[C@@H]3C)cc(C3(S(=O)(=O)c4ccccc4C(F)(F)F)CC3)n2)cc1 [Example 10d] with its measured pIC50.
7.36

Report measured pIC50; entry is `Cc1ccc(NC(=O)Nc2ccc(-c3nc(N4CCOC[C@@H]4C)cc(C4(S(C)(=O)=O)CC4)n3)cc2)cc1`
9.18

Give the reported value of pIC50 for this record: `C[C@H]1COCCN1c1cc(C2(S(=O)(=O)C3CC3)CC2)nc(-c2ccc(NC(=O)Nc3ncns3)cc2)n1`
9.05

Dear colleague, please send me the reported pIC50 for `C[C@H]1COCCN1c1cc(C2(S(=O)(=O)c3ccc(F)cc3)CC2)nc(-c2ccc(NC(=O)NCCN(C)C)cc2)n1` when you can.
7.21

Could you please provide reported pIC50 for `C[C@H]1COCCN1c1cc(C2(S(=O)(=O)c3ccc(F)cc3)CC2)nc(-c2ccc(NC(=O)NC3CCC3)cc2)n1` ? Thanks!
8.87

----------
- System tested: mTOR (Homo sapiens, UniProt P42345)
- Construct: FLAG; made in house
- Protocol text: In Vitro mTOR Kinase Assay (Echo), Test (a)(ii)
- Assay type: biochemical
- Experimental conditions: table of enzyme assay Test (a)(ii); read-out: Test (a)(ii) IC50
Readout name: pIC50
The meaning of pIC50 here: minus log10 of the concentration in molar units.

// Input: CC(C)NC(=O)Nc1ccc(-c2nc(N3CCOC[C@@H]3C)cc(C3(S(=O)(=O)c4cc(F)cc(F)c4)CC3)n2)cc1 [Example 19d] . Output its pIC50 only.
8.50

Input C[C@H]1COCCN1c1cc(C2(S(=O)(=O)c3ccccc3)CC2)nc(-c2ccc(NC(=O)NC3(CO)CC3)cc2)n1 [Example 36bo] , output reported pIC50.
7.75

Identify the reported pIC50 for the following entry. CCS(=O)(=O)C1(c2cc(N3CCOC[C@@H]3C)nc(-c3ccc(NC(=S)NCCCO)cc3)n2)CC1 [Example 88c]
7.33

For `C[C@H]1COCCN1c1cc(C2(S(=O)(=O)CCC(C)(C)O)CC2)nc(-c2ccc(NC(=O)NC3CC3)cc2)n1` , write its pIC50.
7.73

----------
- System tested: mTOR (Homo sapiens, UniProt P42345)
- Construct: FLAG; made in house
- Protocol text: In Vitro mTOR Kinase Assay (Echo), Test (a)(ii)
- Assay type: biochemical
- Experimental conditions: read-out: mTOR Kinase Assay (Echo)
Readout name: pIC50
Quick note: pIC50 means taking -log10 of the concentration in moles per liter.

# return recorded pIC50 for input C[C@H]1COCCN1c1cc(C2(S(=O)(=O)c3ccccc3C(F)(F)F)CC2)nc(-c2ccc(NC(=O)NC3CCC3)cc2)n1 [Example 10a]
7.40

# return recorded pIC50 for entry CCS(=O)(=O)C1(c2cc(N3CCOC[C@@H]3C)nc(-c3ccc(NC(=O)Nc4cnn(C)c4)cc3)n2)CC1 [Example 11m]
8.36

Supply recorded pIC50 for C[C@H]1COCCN1c1cc(C2(S(=O)(=O)C3CC3)CC2)nc(-c2ccc(NC(=O)NCC(C)(C)CO)cc2)n1 [Example 3n] here.
7.40

Query pIC50 for C[C@H]1COCCN1c1cc(C2(S(=O)(=O)C3CC3)CC2)nc(-c2ccc(NC(=O)NC(C)(C)CO)cc2)n1 [Example 3k]
8.64

Give recorded pIC50. C[C@H]1COCCN1c1cc(C2(S(C)(=O)=O)CC2)nc(-c2ccc(NC(=O)NC3(CO)CC3)cc2)n1 [Example 2ab]
7.26

Supply recorded pIC50 for C[C@H]1COCCN1c1cc(C2(S(=O)(=O)C3CC3)CC2)nc(-c2ccc(NC(=O)Nc3ccc(C(F)(F)F)cc3)cc2)n1 [Example 3j] here.
8.37

Write down pIC50 measured for item C[C@H]1COCCN1c1cc(C2(S(=O)(=O)c3ccncc3)CC2)nc(-c2ccc(NC(=O)Nc3ccccn3)cc2)n1 [Example 6a]
8.53

Note down pIC50 recorded for C[C@H]1COCCN1c1cc(C2(S(C)(=O)=O)CC2)nc(-c2ccc(NC(=O)Nc3cnn(C)c3)cc2)n1 [Example 2b]
9.77

----------
- System tested: mTOR (Homo sapiens, UniProt P42345)
- Construct: FLAG; made in house
- Protocol text: In Vitro mTOR Kinase Assay (Echo), Test (a)(ii)
- Assay type: biochemical
- Experimental conditions: table of enzyme assay Test (a)(ii); read-out: Test (a)(ii) IC50
Readout name: pIC50
Bear in mind: pIC50 is minus log10 of a mol/L concentration; give just that figure.

Return pIC50 (reported value) for this compound: CNC(=O)Nc1ccc(-c2nc(N3CCOC[C@@H]3C)cc(C3(S(C)(=O)=O)CCOCC3)n2)cc1 [Example 23a]
8.34

Recall and state the measured pIC50 for C[C@H]1COCCN1c1cc(C2(S(=O)(=O)c3ccccc3)CC2)nc(-c2ccc(NC(=O)Nc3cnn(C)c3)cc2)n1 [Example 36br] .
8.73

Quickly give me recorded pIC50 for O=C(Nc1ccc(-c2nc(N3CCOCC3)cc(C3(S(=O)(=O)C4CC4)CCC3)n2)cc1)NC1CC1 [Example 13p]
8.69

Supply pIC50 value. Item: `CNCCS(=O)(=O)C1(c2cc(N3CCOCC3)nc(-c3ccc(NC(=O)NC)cc3)n2)CC1`
7.05

Please give measured pIC50 of the following entry: Cc1ccc(S(=O)(=O)C2(c3cc(N4CCOC[C@@H]4C)nc(-c4ccc(NC(=O)Nc5cnn(C)c5)cc4)n3)CC2)cc1 [Example 95r]
8.20

Dear colleague, please send me the reported pIC50 for CCNC(=O)Nc1ccc(-c2nc(N3CCOCC3)cc(C3(S(=O)(=O)c4ccccn4)CC3)n2)cc1 [Example 56b] when you can.
8.78

Provide only the value of recorded pIC50 for C[C@H]1COCCN1c1cc(C2(S(C)(=O)=O)CCNCC2)nc(-c2ccc(NC(=O)NCCN(C)C)cc2)n1 [Example 20b]
6.06

Using the record for C[C@H]1COCCN1c1cc(C2(S(=O)(=O)c3ccccc3)CCC2)nc(-c2ccc(NC(=O)Nc3cnn(C)c3)cc2)n1 [Example 36bv] , state its measured pIC50.
8.58

Identify measured pIC50 corresponding to `C[C@H]1COCCN1c1cc(C2(S(=O)(=O)c3ccc(F)cc3)CCC2)nc(-c2ccc(NC(=O)NCc3ncc[nH]3)cc2)n1`
7.52

Fill in pIC50 for record Cc1cc(F)ccc1S(=O)(=O)C1(c2cc(N3CCOC[C@@H]3C)nc(-c3ccc(NC(=O)NCCO)cc3)n2)CC1 [Example 82b]
8.12

Answer with the recorded pIC50 for the compound listed here: CNC(=O)Nc1ccc(-c2nc(N3CCOC[C@@H]3C)cc(C3(S(=O)(=O)c4ccc(C#N)cc4Cl)CC3)n2)cc1 [Example 85e]
7.74

# return recorded pIC50 for input CNC(=O)Nc1ccc(-c2nc(N3CCOCC3)cc(C3(S(=O)(=O)C4CC4)CCC3)n2)cc1 [Example 13q]
8.72

Identify pIC50 associated with the compound C[C@H]1COCCN1c1cc(C2(S(=O)(=O)c3ccncc3)CC2)nc(-c2ccc(NC(=S)NCCO)cc2)n1 [Example 37ad]
8.58

Answer with the recorded pIC50 of C[C@H]1COCCN1c1cc(C2(S(=O)(=O)C3CC3)CCC2)nc(-c2ccc(NC(=O)NC3CC3)cc2)n1 [Example 36e] only.
8.18
